Method: Mean exposure of saquinavir mesylate estimated by AUC(0-infinity) following oral repeat dosing of 1000 mg Invirase Hard Gel Capsules capsules in healthy woman
Type: ADME, organism-based
Test Conditions: female, human, plasma, read-out: AUC(0-infinity)

Chemical String | U | AUC(0-inf)
CC(C)(C)NC(=O)[C@@H]1C[C@@H]2CCCC[C@@H]2CN1C[C@@H](O)[C@H](Cc1ccccc1)NC(=O)[C@H](CC(N)=O)NC(=O)c1ccc2ccccc2n1 | ng·h/mL | 1090

====

Method: Maximum Tmax of saquinavir mesylate following oral repeat dosing of 1000 mg Invirase Hard Gel Capsules capsules in healthy human
Type: ADME, organism-based
Test Conditions: both, plasma, read-out: Maximum Tmax
Observed Property: Tmax

Chemical String | Observed Measurement
CC(C)(C)NC(=O)[C@@H]1C[C@@H]2CCCC[C@@H]2CN1C[C@@H](O)[C@H](Cc1ccccc1)NC(=O)[C@H](CC(N)=O)NC(=O)c1ccc2ccccc2n1 | 10 h
